# maps each entry to its Post-emergence Test SETFA, percentage damage to the plant (five-point scale)
Tested on: Setaria faberi (SETFA)
Assay: Post-emergence Test (glasshouse, percentage damage to the plant)
Type: in vivo
Conditions: post-emergence spray, 1000 g/ha unless otherwise stated, evaluated after 13 days

Here is how some compounds turned out for Post-emergence Test SETFA, percentage damage to the plant (five-point scale).
[Q] Report Post-emergence Test SETFA, percentage damage to the plant (five-point scale) for `CCn1c(C)c(-c2cc(C)cs2)c(=O)c(C(=O)O)c1-c1ccc(Cl)cc1` tested on Setaria faberi (SETFA).
[A] 2 (2=21-40%)

[Q] Report Post-emergence Test SETFA, percentage damage to the plant (five-point scale) for `CCn1c(C)c(-c2cccc(C(C)=O)c2)c(=O)c(C(=O)O)c1-c1ccc(Cl)c(Cl)c1` tested on Setaria faberi (SETFA).
[A] 4 (4=61-80%)

[Q] Report Post-emergence Test SETFA, percentage damage to the plant (five-point scale) for `CCn1c(C)c(-c2cncc(F)c2)c(=O)c(C(=O)O)c1-c1ccc(Cl)c(Cl)c1` tested on Setaria faberi (SETFA).
[A] 3 (3=41-60%)

[Q] Report Post-emergence Test SETFA, percentage damage to the plant (five-point scale) for CCn1c(C)c(-c2ccc(F)cc2OC)c(=O)c(C(=O)OC)c1-c1ccc(Cl)c(Cl)c1 [Compound 163] tested on Setaria faberi (SETFA).
[A] 0

[Q] Report Post-emergence Test SETFA, percentage damage to the plant (five-point scale) for `CCn1c(C)c(-c2ccccc2Cl)c(=O)c(C(=O)O)c1-c1ccc(Cl)c(Cl)c1` tested on Setaria faberi (SETFA).
[A] 4 (4=61-80%)

[Q] Report Post-emergence Test SETFA, percentage damage to the plant (five-point scale) for `CCn1c(C)c(-c2cc(C)cs2)c(=O)c(C(=O)O)c1-c1ccc(Cl)c(Cl)c1` tested on Setaria faberi (SETFA).
[A] 4 (4=61-80%)

[Q] Report Post-emergence Test SETFA, percentage damage to the plant (five-point scale) for `CCn1c(C)c(-c2ccc(F)c(F)c2)c(=O)c(C(=O)O)c1-c1ccc(Cl)c(Cl)c1` tested on Setaria faberi (SETFA).
[A] 4 (4=61-80%)

[Q] Report Post-emergence Test SETFA, percentage damage to the plant (five-point scale) for `CCOc1cc(-c2c(C)n(CC)c(-c3ccc(Cl)c(Cl)c3)c(C(=O)O)c2=O)cc(C(F)(F)F)c1` tested on Setaria faberi (SETFA).
[A] 2 (2=21-40%)

[Q] Report Post-emergence Test SETFA, percentage damage to the plant (five-point scale) for `CCn1c(C)c(-c2cc(F)c(OC)c(Cl)c2)c(=O)c(C(=O)O)c1-c1ccc(Cl)c(Cl)c1` tested on Setaria faberi (SETFA).
[A] 1 (1=0-20%)

[Q] Report Post-emergence Test SETFA, percentage damage to the plant (five-point scale) for `CCn1c(C)c(-c2ccccc2C)c(=O)c(C(=O)O)c1-c1ccc(Cl)c(Cl)c1` tested on Setaria faberi (SETFA).
[A] 3 (3=41-60%)

Further cases:
[Q] Report Post-emergence Test SETFA, percentage damage to the plant (five-point scale) for CCn1c(C)c(-c2ccc(C(F)(F)F)c(Cl)c2)c(=O)c(C(=O)O)c1-c1ccc(Cl)cc1 [Compound 170] tested on Setaria faberi (SETFA).
[A] 1 (1=0-20%)

[Q] Report Post-emergence Test SETFA, percentage damage to the plant (five-point scale) for `CCn1c(C)c(-c2ccc(C(C)(C)C)cc2)c(=O)c(C(=O)O)c1-c1ccc(Cl)c(Cl)c1` tested on Setaria faberi (SETFA).
[A] 1 (1=0-20%)

###

Tested on: Amaranthus retoflexus (AMARE)
Test: Pre-emergence Test (glasshouse, percentage damage to the plant)
Type: in vivo
Conditions: 1000 g/ha unless otherwise stated, five-point scale
TEST READOUT: percentage damage to the plant, AMARE

Here is how some molecules turned out for percentage damage to the plant, AMARE.
[Q] Item under review: `CCn1c(C)c(-c2ccc(COC)cc2)c(=O)c(C(=O)O)c1-c1ccc(Cl)c(Cl)c1` . Reported percentage damage to the plant, AMARE?
[A] 1 (1=0-20%)

[Q] Item under review: `CCn1c(C)c(-c2cccc(C(F)F)c2)c(=O)c(C(=O)O)c1-c1ccc(Cl)c(Cl)c1` . Reported percentage damage to the plant, AMARE?
[A] 1 (1=0-20%)

[Q] Item under review: `CCn1c(C)c(-c2cc(F)c(F)c(F)c2)c(=O)c(C(=O)O)c1-c1ccc(Cl)c(Cl)c1` . Reported percentage damage to the plant, AMARE?
[A] 1 (1=0-20%)

[Q] Item under review: `CCOC(=O)c1c(-c2ccc(Br)c(F)c2)n(CC)c(C)c(-c2ccc(Cl)cc2)c1=O` . Reported percentage damage to the plant, AMARE?
[A] 0

[Q] Item under review: `CCn1c(C)c(-c2ccccc2F)c(=O)c(C(=O)O)c1-c1ccc(Cl)c(Cl)c1` . Reported percentage damage to the plant, AMARE?
[A] 2 (2=21-40%)

Further cases:
[Q] Item under review: `CCn1c(C)c(-c2ccc(Cl)cc2F)c(=O)c(C(=O)O)c1-c1ccc(Cl)c(Cl)c1` . Reported percentage damage to the plant, AMARE?
[A] 5 (5=81-100%)

[Q] Item under review: `CCn1c(C)c(-c2ccc(S(C)(=O)=O)cc2)c(=O)c(C(=O)O)c1-c1ccc(Cl)c(Cl)c1` . Reported percentage damage to the plant, AMARE?
[A] 1 (1=0-20%)

[Q] Item under review: `CCn1c(C)c(-c2cc(C(F)(F)F)ccc2Cl)c(=O)c(C(=O)O)c1-c1ccc(Cl)cc1` . Reported percentage damage to the plant, AMARE?
[A] 0

[Q] Item under review: `CCOc1cc(-c2c(C)n(CC)c(-c3ccc(Cl)c(Cl)c3)c(C(=O)O)c2=O)ccc1C#N` . Reported percentage damage to the plant, AMARE?
[A] 4 (4=61-80%)

###

Tested on: Echinochloa crus-galli (ECHCG)
Assay: Post-emergence Test (glasshouse, percentage damage to the plant)
Assay type: in vivo
Conditions: post-emergence spray, 1000 g/ha unless otherwise stated, evaluated after 13 days
# maps each entry to its Post-emergence Test ECHCG, percentage damage to the plant (five-point scale)

[Q] Report Post-emergence Test ECHCG, percentage damage to the plant (five-point scale) for `CCn1c(C)c(-c2ccc(Cl)s2)c(=O)c(C(=O)O)c1-c1ccc(Cl)cc1` tested on Echinochloa crus-galli (ECHCG).
[A] 2 (2=21-40%)

[Q] Report Post-emergence Test ECHCG, percentage damage to the plant (five-point scale) for `CCn1c(C)c(-c2ccc(F)cc2)c(=O)c(C(=O)O)c1-c1ccc(Cl)c(Cl)c1` tested on Echinochloa crus-galli (ECHCG).
[A] 4 (4=61-80%)

[Q] Report Post-emergence Test ECHCG, percentage damage to the plant (five-point scale) for `CCn1c(C)c(-c2cc(F)cc(Cl)c2)c(=O)c(C(=O)O)c1-c1ccc(Cl)c(Cl)c1` tested on Echinochloa crus-galli (ECHCG).
[A] 1 (1=0-20%)

###

# maps each entry to its Post-emergence Test SETFA, percentage damage to the plant (five-point scale)
System: Setaria faberi (SETFA)
Assay: Post-emergence Test (glasshouse, percentage damage to the plant)
Format: in vivo
Conditions: post-emergence spray, 1000 g/ha unless otherwise stated, evaluated after 13 days

[Q] Item under review: `CCn1c(-c2ccc(Cl)c(Cl)c2)c(C(=O)O)c(=O)c(-c2ccc(Cl)cc2)c1C(F)(F)F` . Reported Post-emergence Test SETFA, percentage damage to the plant (five-point scale)?
[A] 0

Further cases:
[Q] Item under review: `CCn1c(C)c(-c2cc(Cl)cc(C(F)(F)F)c2)c(=O)c(C(=O)O)c1-c1ccc(Cl)c(Cl)c1` . Reported Post-emergence Test SETFA, percentage damage to the plant (five-point scale)?
[A] 1 (1=0-20%)

[Q] Item under review: `CCn1c(C)c(-c2cc(OC)ccc2F)c(=O)c(C(=O)O)c1-c1ccc(Cl)cc1` . Reported Post-emergence Test SETFA, percentage damage to the plant (five-point scale)?
[A] 2 (2=21-40%)

[Q] Item under review: `CCn1c(C)c(-c2cccc(Cl)c2)c(=O)c(C(=O)O)c1-c1ccc(Cl)c(Cl)n1` . Reported Post-emergence Test SETFA, percentage damage to the plant (five-point scale)?
[A] 0

[Q] Item under review: CCn1c(C)c(-c2ccc(F)c(C#N)c2)c(=O)c(C(=O)O)c1-c1ccc(Cl)c(Cl)c1 [Compound 92] . Reported Post-emergence Test SETFA, percentage damage to the plant (five-point scale)?
[A] 1 (1=0-20%)

###

# maps each entry to its percentage damage to the plant, ZEAMX
System: Zea mays (ZEAMX)
Experiment: Pre-emergence Test (glasshouse, percentage damage to the plant)
Type: in vivo
Conditions: 1000 g/ha unless otherwise stated, five-point scale

Here is how some compounds turned out for percentage damage to the plant, ZEAMX.
[Q] Item under review: CCn1c(C)c(-c2cc(OC)cc(OC)c2)c(=O)c(C(=O)O)c1-c1ccc(Cl)c(Cl)c1 [Compound 70] . Reported percentage damage to the plant, ZEAMX?
[A] 1 (1=0-20%)

[Q] Item under review: CCn1c(C)c(-c2ccc(Cl)cc2)c(=O)c(C(=O)O)c1-c1ccc(Br)c(F)c1 [Compound 129] . Reported percentage damage to the plant, ZEAMX?
[A] 1 (1=0-20%)

[Q] Item under review: CCn1c(C)c(-c2ccc(F)c(F)c2)c(=O)c(C(=O)O)c1-c1ccc(Cl)c(Cl)c1 [Compound 104] . Reported percentage damage to the plant, ZEAMX?
[A] 1 (1=0-20%)

[Q] Item under review: CCn1c(C)c(-c2ccc(C(F)(F)F)cc2)c(=O)c(C(=O)O)c1-c1ccnc(Cl)c1 [Compound 140] . Reported percentage damage to the plant, ZEAMX?
[A] 0

[Q] Item under review: CCn1c(C)c(-c2cc(F)c(F)c(F)c2)c(=O)c(C(=O)O)c1-c1ccc(Cl)c(Cl)c1 [Compound 73] . Reported percentage damage to the plant, ZEAMX?
[A] 1 (1=0-20%)

Further cases:
[Q] Item under review: CCn1c(C)c(-c2ccc(OC)c(OC)c2)c(=O)c(C(=O)O)c1-c1ccc(Cl)c(Cl)c1 [Compound 99] . Reported percentage damage to the plant, ZEAMX?
[A] 2 (2=21-40%)

[Q] Item under review: CCn1c(C)c(-c2ccc(F)c(C#N)c2)c(=O)c(C(=O)O)c1-c1ccc(Cl)c(Cl)c1 [Compound 91] . Reported percentage damage to the plant, ZEAMX?
[A] 1 (1=0-20%)

[Q] Item under review: CCn1c(C)c(-c2cccc(C#N)c2)c(=O)c(C(=O)O)c1-c1ccc(Cl)c(Cl)n1 [Compound 147] . Reported percentage damage to the plant, ZEAMX?
[A] 0
